Assayed Target: UniProt:P51531
Sequence (P51531 whole entry): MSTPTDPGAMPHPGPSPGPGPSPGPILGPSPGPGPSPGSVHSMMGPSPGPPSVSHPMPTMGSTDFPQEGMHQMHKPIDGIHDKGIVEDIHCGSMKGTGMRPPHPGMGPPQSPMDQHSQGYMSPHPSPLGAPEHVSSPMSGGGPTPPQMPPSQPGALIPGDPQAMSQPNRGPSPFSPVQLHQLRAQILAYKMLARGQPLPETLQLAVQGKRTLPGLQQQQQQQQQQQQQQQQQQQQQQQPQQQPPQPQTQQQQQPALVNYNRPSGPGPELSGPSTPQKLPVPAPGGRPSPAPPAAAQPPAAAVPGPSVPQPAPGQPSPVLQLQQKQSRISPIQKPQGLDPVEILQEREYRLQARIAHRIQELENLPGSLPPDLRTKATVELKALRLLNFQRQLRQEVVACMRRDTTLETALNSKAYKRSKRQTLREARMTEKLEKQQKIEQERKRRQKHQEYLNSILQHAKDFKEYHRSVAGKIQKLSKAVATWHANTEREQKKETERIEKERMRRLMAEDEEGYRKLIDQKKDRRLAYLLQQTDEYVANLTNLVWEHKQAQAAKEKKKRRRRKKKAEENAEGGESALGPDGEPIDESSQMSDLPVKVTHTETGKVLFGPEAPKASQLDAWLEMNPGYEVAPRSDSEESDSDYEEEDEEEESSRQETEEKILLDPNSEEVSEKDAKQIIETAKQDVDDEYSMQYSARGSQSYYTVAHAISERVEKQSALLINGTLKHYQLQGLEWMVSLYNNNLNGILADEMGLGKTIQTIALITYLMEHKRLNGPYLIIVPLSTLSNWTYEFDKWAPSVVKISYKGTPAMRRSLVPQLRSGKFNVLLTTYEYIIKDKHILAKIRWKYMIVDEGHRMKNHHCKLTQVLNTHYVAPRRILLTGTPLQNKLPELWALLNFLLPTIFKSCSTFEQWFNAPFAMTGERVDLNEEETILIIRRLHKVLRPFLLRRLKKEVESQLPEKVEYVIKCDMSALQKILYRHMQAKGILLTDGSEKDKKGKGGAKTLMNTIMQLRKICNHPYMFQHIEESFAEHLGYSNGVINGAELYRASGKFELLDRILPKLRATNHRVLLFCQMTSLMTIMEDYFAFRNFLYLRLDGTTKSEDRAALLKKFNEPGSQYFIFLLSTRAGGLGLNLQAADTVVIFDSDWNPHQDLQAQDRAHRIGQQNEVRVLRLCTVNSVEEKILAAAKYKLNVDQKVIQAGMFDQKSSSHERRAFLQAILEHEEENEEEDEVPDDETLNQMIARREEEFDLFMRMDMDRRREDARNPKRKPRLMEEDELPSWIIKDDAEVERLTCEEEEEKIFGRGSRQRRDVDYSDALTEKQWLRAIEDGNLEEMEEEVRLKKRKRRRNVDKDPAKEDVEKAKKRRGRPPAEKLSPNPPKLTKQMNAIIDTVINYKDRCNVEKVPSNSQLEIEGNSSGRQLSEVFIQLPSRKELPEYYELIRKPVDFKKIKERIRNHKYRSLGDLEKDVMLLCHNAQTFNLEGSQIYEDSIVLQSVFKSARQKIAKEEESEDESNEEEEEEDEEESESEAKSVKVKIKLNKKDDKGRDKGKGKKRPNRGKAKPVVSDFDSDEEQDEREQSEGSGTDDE
Assay Comment: MSD SMARCA2 degradation in A549 cell line
Assay type: cell-based
Measurement Parameters: A549 cells, 24 h, read-out: SMARCA2 MSD A549 degradation 24 h: Average external-Abs DC50
I'd be grateful if you could share measured DC50 for these entries.

Recorded DC50 for C#Cc1ccc(CNC(=O)[C@@H]2C[C@@H](O)CN2C(=O)[C@H](NC(=O)[C@H]2CCC3(CC2)C[C@H](N2CCN(c4cnc(N5CCN6c7cc(-c8ccccc8O)nnc7NC[C@H]6C5)nc4)CC2)C3)C(C)(C)CCO)c(Cl)c1 (single isomer, unassigned) [I-306] , please? > 100 nM

Can you check C#Cc1ccc(CNC(=O)[C@@H]2C[C@@H](O)CN2C(=O)[C@@H](NC(=O)N2CC3(CC(N4CC(N5CCC(c6cnc(N7CCc8[nH]c9nnc(-c%10ccccc%10O)cc9c8[C@H]7C)nc6)CC5)C4)C3)C2)C(C)(C)C)cc1 next? > 100 nM
